experiment: Selectivity index is ratio of CC50 to that of EC50; format: functional
Entries annotated with measured S.I
Endpoint Label: S.I

| Compound | Endpoint Label | Recorded Result |
| --- | --- | --- |
| Cc1ncc([N+](=O)[O-])n1CCOC(c1ccccc1)c1ccc(-c2ccccc2)cc1 (stereo not drawn) | S.I | 12 |
| Cc1ncc([N+](=O)[O-])n1CCOC(c1ccccc1)c1ccc(Cl)cc1 (stereo not drawn) | S.I | > 16 |
| Cc1ncc([N+](=O)[O-])n1CCOC(c1ccccc1)c1ccccc1 | S.I | > 1000 |
| Cc1ccnc2c1NC(=O)c1cccnc1N2C1CC1 | S.I | > 1000 |
| Cc1ncc([N+](=O)[O-])n1CCOC(c1ccccc1)c1ccc(F)cc1 (stereo not drawn) | S.I | 222 |
| Cc1ncc([N+](=O)[O-])n1CCOC(c1ccccc1)c1ccc(Cl)cc1Cl (stereo not drawn) | S.I | 36 |
| Cc1ccc(C(OCCn2c([N+](=O)[O-])cnc2C)c2ccccc2)cc1 (stereo not drawn) | S.I | 61 |
| Cc1ncc([N+](=O)[O-])n1CCOC(c1ccccc1)c1ccc(C(C)(C)C)cc1 (stereo not drawn) | S.I | 11 |

---

biological target: Human immunodeficiency virus type 1 reverse transcriptase (Human immunodeficiency virus 1)
pIC50: −log10 of the molar value.
Threshold rule: pIC50 greater than or equal to 6 is true; below that, false.

| Compound | Label Class |
| --- | --- |
| Cc1ccc(C(OCCn2c([N+](=O)[O-])cnc2C)c2ccccc2)cc1 (stereo not given) | false |
| Cc1ncc([N+](=O)[O-])n1CCOC(c1ccccc1)c1ccc(F)cc1 (stereo not given) | false |
| Cc1ncc([N+](=O)[O-])n1CCOC(c1ccccc1)c1ccccc1 | true |
